- System: 407 cancer cell lines
- PROTOCOL: Cell viability of cancer cell lines (IC50), CellTiter-Glo Viability Assay, 96 h
- Type: cell-based
- PROTOCOL CONDITIONS: Homo sapiens, NCI-H1581, 96 h, NCI-H1581 cells, 96 h; read-out: Absolute IC50
ENDPOINT NAME: IC50

Lookup: // lookup IC50 | system=407 cancer cell lines | key= Cc1nn(-c2nc(-c3ccc(C(F)(F)F)cc3)c(SC(C)C)s2)c(C(=O)O)c1-c1cccc(F)c1 [Compound A197]
Found: > 30 µM

---

- Test system: 406 cancer cell lines, 73 blood tumor cell lines and 333 solid tumor cell lines
- PROTOCOL: OmniScreen drug efficacy on cancer cell lines, fitted area under curve (AUC) of dose-response
- Format: cell-based
- PROTOCOL CONDITIONS: KP4, Pancreas
ENDPOINT NAME: IC50 (nM)
Provide only the numeric value, understood in nM.

Lookup: // lookup IC50 | system=406 cancer cell lines, 73 blood tumor cell lines and 333 solid tumor cell lines | key= Cc1nn(-c2nc(-c3ccc(C(F)(F)F)cc3)c(SC(C)C)s2)c(C(=O)O)c1-c1cccc(F)c1 [Compound A197]
Found: 520
